system: Proteus vulgaris IAM-1025
Measure: MIC (µg/mL)
Unit µg/mL implied. Number only.

Examples with their reported MIC follow.
> print(dat)
                                   compound  measure  obs.value
1  CCSC1=C(C(=O)O)N2C(=O)C(NC(=O)/C(=N\OCC(=O)O)c3csc(N)n3)C2SC1 (stereo not shown) [Compound (2)]      MIC       0.78
2  CSC1=C(C(=O)O)N2C(=O)C(NC(=O)/C(=N\OCC(=O)O)c3csc(N)n3)C2SC1 (stereo not shown) [Compound (1)]      MIC       0.39
3  CCSC1=C(C(=O)O)N2C(=O)C(NC(=O)/C(=N\OCC(=O)O)c3nc(N)sc3Cl)C2SC1 (stereo not shown) [Compound (3)]      MIC        0.1

Note: attention shifts to another entry.
Looking up CCSC1=C(C(=O)O)N2C(=O)C(NC(=O)/C(=N\OCC(=O)O)c3nsc(N)n3)C2SC1 (stereo not shown) [(4)] , I found its MIC recorded as 0.78

* * *

assay: in vivo; details: rat, po, 100 mg/kg
Measure: dose excreted at 24 h (%)
API: value field is a number in %; no unit string.

Previously resolved entries follow.
> print(dat)
                                   molecule  obs.value
1  CSC1=C(C(=O)O)N2C(=O)C(NC(=O)/C(=N\OCC(=O)O)c3csc(N)n3)C2SC1 (stereo not drawn)       41.1
2  CCSC1=C(C(=O)O)N2C(=O)C(NC(=O)/C(=N\OCC(=O)O)c3csc(N)n3)C2SC1 (stereo not drawn)       32.2

// next item, dose excreted at 24 h requested
So for CSC1=C(C(=O)O)N2C(=O)C(NC(=O)/C(=N\OCC(=O)O)c3cscn3)C2SC1 (stereo not drawn) , the logged dose excreted at 24 h turned out to be 25.5

* * *

Endpoint: MIC. System: Escherichia coli NIHJ JC-2. Items follow.

The examples below pair each entry with its known result.
> print(dat)
                                   compound   obs.value
1  CCSC1=C(C(=O)O)N2C(=O)C(NC(=O)/C(=N\OCC(=O)O)c3nc(N)sc3Cl)C2SC1 (stereo not shown) [Compound (3)]  1.56 µg/mL
2  CCSC1=C(C(=O)O)N2C(=O)C(NC(=O)/C(=N\OCC(=O)O)c3nsc(N)n3)C2SC1 (stereo not shown) [(4)]  1.56 µg/mL
3  CCSC1=C(C(=O)O)N2C(=O)C(NC(=O)/C(=N\OCC(=O)O)c3csc(N)n3)C2SC1 (stereo not shown) [Compound (2)]  3.13 µg/mL

// below: MIC requested for another compound
Reported Escherichia coli NIHJ JC-2 MIC for item CSC1=C(C(=O)O)N2C(=O)C(NC(=O)/C(=N\OCC(=O)O)c3csc(N)n3)C2SC1 (stereo not shown) [Compound (1)] was 1.56 µg/mL

* * *

experiment: Urinary excretion in rats after oral administration; assay type: in vivo; conditions: rat, 100 mg/kg, 100 mg per Kg, urine 0 to 24 hours, bioassay
The following compounds are listed with their measured dose excreted at 24 h values.

Kindly note the recorded dose excreted at 24 h for CSC1=C(C(=O)O)N2C(=O)C(NC(=O)/C(=N\OCC(=O)O)c3cscn3)C2SC1 (stereo not drawn) , which is 48.6%

Sure, the documented dose excreted at 24 h for CSC1=C(C(=O)O)N2C(=O)C(NC(=O)/C(=N\OCC(=O)O)c3csc(N)n3)C2SC1 (stereo not drawn) is 51.6%

Recorded result, CCSC1=C(C(=O)O)N2C(=O)C(NC(=O)/C(=N\OCC(=O)O)c3csc(N)n3)C2SC1 (stereo not drawn) , dose excreted at 24 h: 19.4%
